assayed.system: IDH1R132C (Homo sapiens (Human), UniProt O75874, R132C)
Sequence (O75874 whole entry R132C): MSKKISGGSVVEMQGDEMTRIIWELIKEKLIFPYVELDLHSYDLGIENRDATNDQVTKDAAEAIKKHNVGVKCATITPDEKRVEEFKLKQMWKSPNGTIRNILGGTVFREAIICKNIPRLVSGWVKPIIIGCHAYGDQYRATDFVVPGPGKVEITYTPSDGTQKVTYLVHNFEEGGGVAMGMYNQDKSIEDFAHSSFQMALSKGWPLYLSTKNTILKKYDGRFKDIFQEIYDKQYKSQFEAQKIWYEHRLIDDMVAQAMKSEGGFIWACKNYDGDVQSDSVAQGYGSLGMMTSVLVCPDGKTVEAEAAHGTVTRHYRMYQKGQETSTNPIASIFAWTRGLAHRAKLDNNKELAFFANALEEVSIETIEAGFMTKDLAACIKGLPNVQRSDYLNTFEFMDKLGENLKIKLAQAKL
assay.comment: Inhibitory activity against IDH1R132C enzyme (NADPH detection, WST-8)
experimental.parameters: 10 nM, residual NADPH detected with WST-8, read-out: Test Example 1 IDH1 R132C IC50
pIC50: −log10 of the molar value.
property: pIC50

compound | pIC50
C/C=C/C(=O)N1CCC(c2onc(-c3c(Cl)cc(Cl)cc3Cl)c2C(=O)n2cc(C)c3c(/C=C/C(=O)O)cccc32)CC1 [Example 119] | 6.72
C=CC(=O)N1CCC(c2onc(-c3c(Cl)cccc3Cl)c2C(=O)n2cc(C)c3c(/C=C/C(=O)O)cccc32)CC1 [Example 108] | 6.83
C=CC(=O)N1CCC(c2onc(-c3c(Cl)cc(Cl)cc3Cl)c2C(=O)n2cc3c4c(cccc42)/C(=C/C(=O)O)CC3)CC1 [Example 94] | 6.80

A = Cc1cn(C(=O)c2c(-c3c(Cl)cccc3Cl)noc2C(C)C)c2cccc(/C=C/C(=O)O)c12 [Example 25]
B = C=CC(=O)N1CCC(c2onc(-c3c(Cl)cc(F)cc3Cl)c2C(=O)n2cc(C)c3c(/C=C/C(=O)O)cccc32)CC1 [Example 112]
From the items above, decide which of A and B has the lower pIC50 reading. Indicate which entry you chose by stating its label.
A

a = Cc1cn(C(=O)c2c(-c3c(Cl)cc(Cl)cc3Cl)noc2C2(N(C)C)CC2)c2cccc(/C=C/C(=O)O)c12 [Example 82]
b = COC1(c2onc(-c3c(Cl)cc(Cl)cc3Cl)c2C(=O)n2ccc3c(/C=C/C(=O)O)cccc32)CC1 [Example 44]
c = C=CC(=O)N1CCC(c2onc(-c3c(Cl)cc(Cl)cc3Cl)c2C(=O)n2cc3c4c(cccc42)C(CC(=O)O)CC3)CC1 (stereo not shown) [Example 125]
# rank_down: sort by pIC50, max first Output the labels ranked as instructed.
a, b, c

P = C=CC(=O)N1CCC(OC)(c2onc(-c3c(Cl)cc(Cl)cc3Cl)c2C(=O)n2cc(C)c3c(/C=C/C(=O)O)cccc32)CC1 [Example 117]
Q = Cc1cn(C(=O)c2c(-c3ccc(Cl)c(F)c3Cl)noc2C(C)(C)F)c2cccc(/C=C/C(=O)O)c12 [Example 17]
Exercise: compare P and Q ; which one has the greater pIC50? Indicate which entry you chose by stating its label.
P
